Test system: CCRF-CEM
Experiment: The mitochondrial toxicity was measured on human T-lymphoid CEM cells.
Assay type: functional
EXPERIMENTAL_ENDPOINT: ID50

                                   compound  experimental_endpoint  value_reported
0  O=c1[nH]c(=O)n([C@@H]2CO[C@H](CO)O2)cc1Br                   ID50        > 200 µM
1  O=c1[nH]c(=O)n([C@H]2CO[C@H](CO)O2)cc1/C=C/I                   ID50         > 25 µM
2  O=c1[nH]c(=O)n([C@@H]2CO[C@H](CO)O2)cc1I                   ID50        > 200 µM
3  O=c1[nH]c(=O)n([C@H]2O[C@@H](CO)[C@H](O)[C@H]2O)cc1/C=C/Br (stereo in doubt)                   ID50        > 200 µM
4              Nc1nc2c(ncn2COCCO)c(=O)[nH]1                   ID50        > 200 µM
